Test: Pharmacokinetic assay in beagle dogs
Conditions: both, dog, in vivo, iv, 0.3 mg/kg, Cmax, beagle dogs, mean
readout_type: Cmax (ng/mL)

- compound: "CNCCC(Oc1cccc2c1OCO2)c1ccccc1.O=C(O)C(=O)O (stereo not shown)"
  value: 71.6

###

Experiment: Pharmacokinetic assay in beagle dogs
Settings: both, dog, in vivo, po, 1 mg/kg, Bioavailability, beagle dogs, oral 1 mg/kg vs intravenous 0.3 mg/kg, mean
readout_type: bioavailability (%)

- molecule: "CNCCC(Oc1cccc2c1OCO2)c1ccccc1.O=C(O)C(=O)O (stereo not shown)"
  readout_type: "bioavailability"
  value: 21.8
